target: T1, cynomolgus monkey CD3 expressed on primary T cells (cynomolgus monkey, UniProt Q95LI5 22-198; Q95LI8 22-171; Q95LI7 23-181); experiment: flow cytometry, 25 nM
T1 construct: whole, on cells; CD3 complex on purified cynomolgus monkey T cells; also called cyno CD3
T1 sequence (Q95LI5 22-198, chain 1 of 3): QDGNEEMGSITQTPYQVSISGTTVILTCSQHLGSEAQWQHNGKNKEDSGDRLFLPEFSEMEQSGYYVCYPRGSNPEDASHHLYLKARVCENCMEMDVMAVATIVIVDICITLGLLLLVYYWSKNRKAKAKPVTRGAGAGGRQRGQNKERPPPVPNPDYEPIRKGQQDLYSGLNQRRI
T1 sequence (Q95LI8 22-171, chain 2 of 3): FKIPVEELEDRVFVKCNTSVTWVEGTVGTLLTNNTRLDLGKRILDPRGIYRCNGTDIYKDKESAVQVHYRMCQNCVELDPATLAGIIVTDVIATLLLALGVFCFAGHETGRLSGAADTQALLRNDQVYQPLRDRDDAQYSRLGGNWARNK
T1 sequence (Q95LI7 23-181, chain 3 of 3): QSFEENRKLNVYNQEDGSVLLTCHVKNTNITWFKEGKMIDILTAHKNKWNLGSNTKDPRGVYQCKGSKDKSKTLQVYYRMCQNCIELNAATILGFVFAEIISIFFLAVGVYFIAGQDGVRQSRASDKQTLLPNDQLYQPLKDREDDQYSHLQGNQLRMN
Property label: Cyno primary T Cell Binding (FOI)

Binder	Quantitative result
mAb 70 (antibody, V domains shown) VH: QGQLVESGGGVVQPGRSLRLSCEASGFTFRSYGMHWVRQPPGKGLEWVAIIWYDGGKKYYGDSVKGRFTISRDNPKNTLYLQMNSLRPEDTAVYYCMAYDYSNGFDIWGQGTMVTVSS VL: DIVMTQTPLSSPVTLGQPASISCRSSQSFVHSDGSTYLSWLQQRPGQPPRLLIYKISNRFSGVPDRFSGRGAGTDFTLKISRVEAEDVGIYYCMQNTQFPYTFGQGTKLEIK	238

Reference source for all entries: patent US20230295310A1
